# Method: Solubility of dyestuffs in water
# Assay type: physicochemical
# Settings: Table 1, 25° C., read-out: Solubility in water at 25° C.
Parameter measured: solubility

Below: 2 compounds and their reported solubility.
1. Cc1cccc[n+]1CCNc1ccc(N=Nc2ccc([N+](=O)[O-])cc2)cc1Cl ... < 2.5 mg/mL
2. O=[N+]([O-])c1ccc(N=Nc2ccc(NCC[n+]3ccccc3)c(Cl)c2)cc1 ... < 2.5 mg/mL

Turning to the following compound.
Any idea what its solubility is? The compound is "Cc1cc[n+](CCNc2ccc(N=Nc3ccc([N+](=O)[O-])cc3)cc2Cl)cc1"
75 to 100 mg/mL
